FYI, the data here is from patent US20250281424A1.

List of microsomal CLint at 0.5 μM values.
# ASSAY TEXT: Human microsome stability
# Assay type: in vitro ADME
# CONDITION SUMMARY: Human microsomes, compound conc = 0.5 μM, n = 1; read-out: Human microsome stability Intrinsic Clearance Clint (ml/min/mg protein)

The reported value for CCOC(=O)C1C(=O)c2ccc(C(=O)c3ccc4c(c3)C(=O)C(C(=O)OCC)C4=O)cc2C1=O (stereo not drawn) in terms of microsomal CLint at 0.5 μM is < 9.5 mL/min/mg

Reported microsomal CLint at 0.5 μM for CC(=O)C1C(=O)c2ccc(C(=O)c3ccc4c(c3)C(=O)C(C(C)=O)C4=O)cc2C1=O (stereo not drawn) was 15.8 mL/min/mg

O=C(c1ccc2c(c1)C(=O)C(C(=O)NCCc1ccccc1)C2=O)c1ccc2c(c1)C(=O)C(C(=O)NCCc1ccccc1)C2=O (stereo not drawn) yielded microsomal CLint at 0.5 μM of < 9.5 mL/min/mg
